- Test summary: Ethinylestradiol pharmacokinetics alone and with ritonavir in healthy female volunteers
- Format: in vivo, human
- Condition summary: female, human, serum, po, 50 μg, serum ethinylestradiol after single oral contraceptive dose (50 μg); Mean ± SD, n = 23; alone Day 1, with ritonavir 500 mg q12h Day 29
Outcome measure: Tmax

Kindly indicate its recorded Tmax. Item: C#C[C@]1(O)CC[C@H]2[C@@H]3CCc4cc(O)ccc4[C@H]3CC[C@@]21C [Ethinylestradiol, 17α-ethinylestradiol]
~4 h

---

- Test summary: Ethinylestradiol pharmacokinetics alone and with ritonavir in healthy female volunteers
- Format: in vivo, human
- Condition summary: female, human, serum, po, 50 μg
Outcome measure: AUC(0-inf) (ng·h/mL)
Numbers only, in ng·h/mL.

Given the molecule C#C[C@]1(O)CC[C@H]2[C@@H]3CCc4cc(O)ccc4[C@H]3CC[C@@]21C , write its reported AUC(0-inf).
1.67

---

- Test summary: Ethinylestradiol pharmacokinetics alone and with ritonavir in healthy female volunteers
- Format: in vivo, human
- Condition summary: female, human, serum, oral, 500 mg
Outcome measure: half-life (h)
Numbers only, in h.

Tell me its half-life given C#C[C@]1(O)CC[C@H]2[C@@H]3CCc4cc(O)ccc4[C@H]3CC[C@@]21C [Ethinylestradiol, 17α-ethinylestradiol] as the entry.
17

Value source: patent US20040192624A1
